Hello, the source for this data is patent US20230293517A1, in case you need it.

Recorded below: Ki, system human Adenosine A3 receptor (Homo sapiens (Human), UniProt P0DMS8).
The reply should be a number in nM, with the unit left off.

Lab note: need Ki with human Adenosine A3 receptor (Homo sapiens (Human), UniProt P0DMS8) for entry Cc1cc(-c2sc(NC(=O)N3CCC(S(N)(=O)=O)C3)nc2-c2cccc(C#N)c2)cc(C)n1 (stereo not drawn) [Example 6.2] , please look it up.
Sequence (P0DMS8 whole entry): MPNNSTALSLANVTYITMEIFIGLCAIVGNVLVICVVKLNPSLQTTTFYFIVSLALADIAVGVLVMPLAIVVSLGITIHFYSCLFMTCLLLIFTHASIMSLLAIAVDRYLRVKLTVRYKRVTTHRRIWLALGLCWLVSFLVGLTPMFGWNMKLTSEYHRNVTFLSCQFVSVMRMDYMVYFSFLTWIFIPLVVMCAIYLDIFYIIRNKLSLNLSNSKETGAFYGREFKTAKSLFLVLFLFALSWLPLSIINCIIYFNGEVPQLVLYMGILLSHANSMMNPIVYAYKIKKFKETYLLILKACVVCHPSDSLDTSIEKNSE
166

Would you kindly repeat that for Cc1cc(-c2sc(NC(=O)N3CCC4(CC3)CN(C)C(=O)O4)nc2-c2cccc(C#N)c2)cc(C)n1 [Example 6.12] ?
298

Would you kindly repeat that for Cc1cc(-c2sc(NC(=O)N3CC[C@H](C(C)(C)O)C3)nc2-c2cccc(C#N)c2)cc(C)n1 [Example 6.48] ?
245

Would you kindly repeat that for Cc1cc(-c2sc(NC(=O)N3CC[S+]([O-])CC3)nc2-c2cccc(C#N)c2)cc(C#N)n1 [Example 16.5] ?
325

Further cases:
Lab note: need Ki with human Adenosine A3 receptor (Homo sapiens (Human), UniProt P0DMS8) for entry Cc1cc(-c2sc(NC(=O)N3CCC(C#N)CC3)nc2-c2cccc(C#N)c2)cc(CO)n1 [Example 9.6] , please look it up.
369

Would you kindly repeat that for Cc1cc(-c2sc(NC(=O)N3CC4(COC4)C3)nc2-c2cccc(C#N)c2)cc(C(C)(C)O)n1 [Example 12.2] ?
1520

Would you kindly repeat that for Cc1cc(-c2sc(NC(=O)N3CCC(S(C)(=O)=O)CC3)nc2-c2cccc(C#N)c2)cc(C)n1 [Example 6.95] ?
560

Would you kindly repeat that for Cc1cc(-c2sc(NC(=O)N3CC[C@H]3C)nc2-c2cccc(C#N)c2)cc(C)n1 [Example 6.78] ?
37

Would you kindly repeat that for Cc1cc(-c2sc(NC(=O)N3CCC4(CC3)CNC(=O)N4)nc2-c2cccc(C#N)c2)cc(C)n1 [Example 6.11] ?
319
